Attribution: patent US20070077617

# system.under.test: fusion protein PRE
# Sequence (chain, as listed by the source): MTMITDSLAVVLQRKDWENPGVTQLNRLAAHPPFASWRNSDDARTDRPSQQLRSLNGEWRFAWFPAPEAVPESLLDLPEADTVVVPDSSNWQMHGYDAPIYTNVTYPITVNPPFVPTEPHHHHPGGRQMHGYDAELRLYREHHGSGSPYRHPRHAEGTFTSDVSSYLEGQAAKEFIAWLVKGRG

>  <protein>
OmpT protease variant OmpT D97E (protein) STETLSFTPDNINADISLGTLSGKTKERVYLAEEGGRKVSQLDWKFNNAAIIKGAINWDLMPQISIGAAGWTTLGSRGGNMVDQDWMDSSNPGTWTEESRHPDTQLNYANEFDLNIKGWLLNEPNYRLGLMAGYQESRYSFTARGGSYIYSSEEGFRDDIGSFPNGERAIGYKQRFKMPYIGLTGSYRYEDFELGGTFKYSGWVESSDNDEHYDPGKRITYRSKVKDQNYYSVAVNAGYYVTPNAKVYVEGAWNRVTNKKGNTSLYDHNNNTSDYSKNGAGIENYNFITTAGLKYTF

>  <relative cleavage efficiency>
less than 3%

$$$$
>  <protein>
OmpT protease variant OmpT D97F (protein) STETLSFTPDNINADISLGTLSGKTKERVYLAEEGGRKVSQLDWKFNNAAIIKGAINWDLMPQISIGAAGWTTLGSRGGNMVDQDWMDSSNPGTWTFESRHPDTQLNYANEFDLNIKGWLLNEPNYRLGLMAGYQESRYSFTARGGSYIYSSEEGFRDDIGSFPNGERAIGYKQRFKMPYIGLTGSYRYEDFELGGTFKYSGWVESSDNDEHYDPGKRITYRSKVKDQNYYSVAVNAGYYVTPNAKVYVEGAWNRVTNKKGNTSLYDHNNNTSDYSKNGAGIENYNFITTAGLKYTF

>  <relative cleavage efficiency>
less than 3%

$$$$
